The reported numbers originate from patent US8569267B2.

# test.target: human cloned 5-HT2A receptor, expressed in L929 cells (Homo sapiens)
# Construct: expressed in transfected cells; host or cells: L929 cells
# assay.name: In vitro binding affinity for 5-HT2A receptor ([125I]R91150 radioligand binding)
# test.conditions: human cloned 5-HT2A receptor in L929 cells, [125I]R91150; read-out: 5-HT2A pIC50 (converted)
readout.label: IC50 (nM)
Report the value in nM with no unit label.

Ask: So what's the measured IC50 for this one? OCC1CCCN(C[C@H]2C[C@@H]3c4ccccc4Cc4ccc(F)cc4[C@@H]3O2)C1 (stereo partly drawn)
Result: 1.1

Ask: So what's the measured IC50 for this one? N#Cc1cccc(CN2CCN(CC3CC4c5ccccc5Cc5ccc(F)cc5C4O3)CC2)c1 (stereo not drawn)
Result: 7.24

Ask: So what's the measured IC50 for this one? CC1(O)CCN(C[C@H]2C[C@@H]3c4ccccc4Cc4ccc(F)cc4[C@@H]3O2)C1 (stereo partly drawn)
Result: 0.631

Ask: So what's the measured IC50 for this one? CCOC(=O)CNC(=O)NC1CCN(CC2CC3c4ccccc4Cc4ccc(F)cc4C3O2)CC1 (stereo not drawn)
Result: 1.2

Ask: So what's the measured IC50 for this one? O=C(NC1CCCCCC1)C1CCN(CC2CC3c4ccccc4Cc4ccc(F)cc4C3O2)CC1 (stereo not drawn)
Result: 1.41

Ask: So what's the measured IC50 for this one? Fc1ccc(OCC2CCN(CC3CC4c5ccccc5Cc5ccc(F)cc5C4O3)C2)cc1 (stereo not drawn)
Result: 5.13

Ask: So what's the measured IC50 for this one? O=C(OC1CCN(CC2CC3c4ccccc4Cc4ccc(F)cc4C3O2)C1)c1ccc(F)cc1F (mixture of isomers)
Result: 5.75

Ask: So what's the measured IC50 for this one? OCCC1CCN(CC2CC3c4ccccc4Cc4ccc(F)cc4C3O2)C1 (mixture of isomers)
Result: 1.45

Ask: So what's the measured IC50 for this one? O=C(NCc1ccc(F)cc1)N1CCN(CC2CC3c4ccccc4Cc4ccc(F)cc4C3O2)CC1 (stereo not drawn)
Result: 3.16

Ask: So what's the measured IC50 for this one? CN(CCO)CCC1CN(CC2CC3c4ccccc4Cc4ccc(F)cc4C3O2)CCO1 (mixture of isomers)
Result: 49

---

Give measured IC50 for each item. Keep answers brief.
# test.target: human cloned 5-HT2C receptor, expressed in CHO cells (Homo sapiens, UniProt P28335)
# Construct: expressed in transfected cells; host or cells: CHO cells
# assay.name: In vitro binding affinity for 5-HT2C receptor ([3H]mesulergine radioligand binding)
# test.conditions: human cloned 5-HT2C receptor, read-out: 5-HT2C pIC50 (converted)
# Protocol: In Vitro Binding Affinity for 5-HT2A and 5-HT2C Receptors The interaction of the compounds of Formula (I) with 5-HT2A and 5-HT2C receptors was assessed in in vitro radioligand binding experiments. […] When equilibrium of binding is reached, the receptor bound radioactivity is separated from the non-bound radioactivity, and the receptor bound activity is counted. The interaction of the test compounds with the receptors is assessed in competition binding experiments. […]
Put down the number, then write its unit next to it.

Ask: Hi! What's the reported IC50 for Fc1ccc2c(c1)C1OC(CN3CCC(NC(=S)NCCN4CCOCC4)CC3)CC1c1ccccc1C2 (centres unmarked) [Compound 253] on human cloned 5-HT2C receptor, expressed in CHO cells (Homo sapiens, UniProt P28335)?
Result: 10.2 nM

Ask: Hi! What's the reported IC50 for O=C(NC1CCN(CC2CC3c4ccccc4Cc4ccc(F)cc4C3O2)CC1)c1cc2ccccc2s1 (centres unmarked) [Compound 223] on human cloned 5-HT2C receptor, expressed in CHO cells (Homo sapiens, UniProt P28335)?
Result: 23.4 nM

Ask: Hi! What's the reported IC50 for O=C1CCN(C[C@H]2C[C@@H]3c4ccccc4Cc4ccc(F)cc4[C@@H]3O2)C1 [Compound 7] on human cloned 5-HT2C receptor, expressed in CHO cells (Homo sapiens, UniProt P28335)?
Result: 2.95 nM

Ask: Hi! What's the reported IC50 for O=C(O)C1CCN(C[C@H]2C[C@@H]3c4ccccc4Cc4ccc(F)cc4[C@@H]3O2)C1 (some centres unmarked) [Compound 10] on human cloned 5-HT2C receptor, expressed in CHO cells (Homo sapiens, UniProt P28335)?
Result: 13.5 nM

Ask: Hi! What's the reported IC50 for CN1c2ccccc2[C@H]2C[C@@H](CN3CCC(O)C3)O[C@@H]2c2ccccc21 (relative stereo) [Compound 264] on human cloned 5-HT2C receptor, expressed in CHO cells (Homo sapiens, UniProt P28335)?
Result: 19.1 nM

Ask: Hi! What's the reported IC50 for OCCC1CCCN(CC2CC3c4ccccc4Cc4ccc(F)cc4C3O2)C1 (mixture of isomers) [Compound 152] on human cloned 5-HT2C receptor, expressed in CHO cells (Homo sapiens, UniProt P28335)?
Result: 4.17 nM

Ask: Hi! What's the reported IC50 for OCCC1CCN(CC2CC3c4ccccc4Cc4ccc(F)cc4C3O2)C1 (mixture of isomers) [Compound 6] on human cloned 5-HT2C receptor, expressed in CHO cells (Homo sapiens, UniProt P28335)?
Result: 1.7 nM

Ask: Hi! What's the reported IC50 for Cc1cccc(C(=O)NC2CCN(CC3CC4c5ccccc5Cc5ccc(F)cc5C4O3)CC2)c1 (centres unmarked) [Compound 225] on human cloned 5-HT2C receptor, expressed in CHO cells (Homo sapiens, UniProt P28335)?
Result: 11.2 nM

Ask: Hi! What's the reported IC50 for O=C(OC1CCN(CC2CC3c4ccccc4Cc4ccc(F)cc4C3O2)C1)C1CCCC1 (mixture of isomers) [Compound 14] on human cloned 5-HT2C receptor, expressed in CHO cells (Homo sapiens, UniProt P28335)?
Result: 3.31 nM

Ask: Hi! What's the reported IC50 for O=C(NCc1ccco1)C1CCN(CC2CC3c4ccccc4Cc4ccc(F)cc4C3O2)CC1 (centres unmarked) [Compound 194] on human cloned 5-HT2C receptor, expressed in CHO cells (Homo sapiens, UniProt P28335)?
Result: 1.45 nM

Ask: Hi! What's the reported IC50 for OCC1CCN(CC2CC3c4ccccc4Cc4ccc(F)cc4C3O2)CC1 (centres unmarked) [Compound 151] on human cloned 5-HT2C receptor, expressed in CHO cells (Homo sapiens, UniProt P28335)?
Result: 1.23 nM

Ask: Hi! What's the reported IC50 for O=C(NC1CCN(CC2CC3c4ccccc4Cc4ccc(F)cc4C3O2)CC1)c1cccc(C(F)(F)F)c1 (centres unmarked) [Compound 233] on human cloned 5-HT2C receptor, expressed in CHO cells (Homo sapiens, UniProt P28335)?
Result: 30.9 nM

Ask: Hi! What's the reported IC50 for COc1cc(C(=O)NC2CCN(CC3CC4c5ccccc5Cc5ccc(F)cc5C4O3)CC2)cc(OC)c1OC (centres unmarked) [Compound 235] on human cloned 5-HT2C receptor, expressed in CHO cells (Homo sapiens, UniProt P28335)?
Result: 13.5 nM

Ask: Hi! What's the reported IC50 for O=C(NCc1cccc(C(F)(F)F)c1)N1CCN(CC2CC3c4ccccc4Cc4ccc(F)cc4C3O2)CC1 (centres unmarked) [Compound 101] on human cloned 5-HT2C receptor, expressed in CHO cells (Homo sapiens, UniProt P28335)?
Result: 12 nM

---

# test.target: human cloned 5-HT2A receptor, expressed in L929 cells (Homo sapiens, UniProt P28223)
# Construct: expressed in transfected cells; host or cells: L929 cells
# Sequence (P28223 whole entry): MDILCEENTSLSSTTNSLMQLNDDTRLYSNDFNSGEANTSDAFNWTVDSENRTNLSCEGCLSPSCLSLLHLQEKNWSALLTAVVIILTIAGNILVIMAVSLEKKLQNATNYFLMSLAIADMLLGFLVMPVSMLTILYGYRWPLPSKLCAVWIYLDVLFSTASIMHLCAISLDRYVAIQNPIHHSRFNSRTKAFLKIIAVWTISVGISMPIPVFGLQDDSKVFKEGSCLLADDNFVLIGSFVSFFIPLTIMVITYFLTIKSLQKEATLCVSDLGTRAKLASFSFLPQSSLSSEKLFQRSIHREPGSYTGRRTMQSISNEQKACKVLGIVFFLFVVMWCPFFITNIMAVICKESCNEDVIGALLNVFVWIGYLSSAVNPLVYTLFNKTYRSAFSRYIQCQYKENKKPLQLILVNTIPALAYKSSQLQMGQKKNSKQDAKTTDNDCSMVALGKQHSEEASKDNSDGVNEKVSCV
# assay.name: In vitro binding affinity for 5-HT2A receptor ([125I]R91150 radioligand binding)
# test.conditions: human cloned 5-HT2A receptor in L929 cells, [125I]R91150; read-out: 5-HT2A pIC50 (converted)
readout.label: IC50 (nM)
Report the value in nM with no unit label.

Ask: So what's the measured IC50 for this one? Fc1ccc2c(c1)C1OC(CN3CCN(C(=S)NC4CCCCC4)CC3)CC1c1ccccc1C2 (stereo not shown) [Compound 114]
Result: 6.17

Ask: So what's the measured IC50 for this one? COc1ccc(OC2CCN(CC3CC4c5ccccc5Cc5ccc(F)cc5C4O3)C2)cc1 (mixture of isomers) [Compound 33]
Result: 6.17

---

# test.target: human cloned 5-HT2C receptor, expressed in CHO cells (Homo sapiens, UniProt P28335)
# Construct: expressed in transfected cells; host or cells: CHO cells
# Sequence (P28335 33-458): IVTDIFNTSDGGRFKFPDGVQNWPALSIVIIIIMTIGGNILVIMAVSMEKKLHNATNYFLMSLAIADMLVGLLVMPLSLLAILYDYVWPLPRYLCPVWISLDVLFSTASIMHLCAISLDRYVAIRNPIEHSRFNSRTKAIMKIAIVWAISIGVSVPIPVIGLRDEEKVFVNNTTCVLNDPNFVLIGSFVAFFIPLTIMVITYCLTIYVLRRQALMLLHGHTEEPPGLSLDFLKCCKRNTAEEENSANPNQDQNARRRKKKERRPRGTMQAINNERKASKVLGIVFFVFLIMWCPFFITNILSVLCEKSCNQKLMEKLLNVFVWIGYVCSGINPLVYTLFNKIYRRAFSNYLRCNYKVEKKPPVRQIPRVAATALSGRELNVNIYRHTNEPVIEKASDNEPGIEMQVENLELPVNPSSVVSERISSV
# assay.name: In vitro binding affinity for 5-HT2C receptor ([3H]mesulergine radioligand binding)
# test.conditions: human cloned 5-HT2C receptor, read-out: 5-HT2C pIC50 (converted)
Give measured IC50 for each item. Keep answers brief.
Put down the number, then write its unit next to it.

Ask: So what's the measured IC50 for this one? CN(CCO)CCC1CN(CC2CC3c4ccccc4Cc4ccc(F)cc4C3O2)CCO1 (mixture of isomers)
Result: 34.7 nM

Ask: So what's the measured IC50 for this one? CCS(=O)(=O)N1CCN(CC2CC3c4ccccc4Cc4ccc(F)cc4C3O2)CC1 (stereo not drawn)
Result: 50.1 nM

Ask: So what's the measured IC50 for this one? N#CCC1CCN(CC2CC3c4ccccc4Cc4ccc(F)cc4C3O2)CC1 (stereo not drawn)
Result: 9.33 nM

Ask: So what's the measured IC50 for this one? Fc1ccc2c(c1)C1OC(CN3CCN(Cc4cnc(-c5ccccc5)[nH]4)CC3)CC1c1ccccc1C2 (stereo not drawn)
Result: 4.27 nM

Ask: So what's the measured IC50 for this one? O=C(OC1CCN(CC2CC3c4ccccc4Cc4ccc(F)cc4C3O2)C1)c1ccc(F)cc1F (mixture of isomers)
Result: 4.68 nM

Ask: So what's the measured IC50 for this one? Fc1ccc2c(c1)C1OC(CN3CCCC(C4=NCCN4)C3)CC1c1ccccc1C2 (stereo not drawn)
Result: 18.2 nM

Ask: So what's the measured IC50 for this one? "CCCCNC(=S)N1CCN(C[C@H]2C[C@@H]3c4ccccc4Cc4ccc(F)cc4[C@@H]3O2)CC1"
Result: 16.2 nM

Ask: So what's the measured IC50 for this one? OCCCC1CCN(CC2CC3c4ccccc4Cc4ccc(F)cc4C3O2)CC1 (stereo not drawn)
Result: 2.88 nM

Ask: So what's the measured IC50 for this one? "CCNC(=O)N1CCN(C[C@H]2C[C@@H]3c4ccccc4Cc4ccc(F)cc4[C@@H]3O2)CC1"
Result: 3.02 nM

Ask: So what's the measured IC50 for this one? O=C(Nc1ccccc1Oc1ccccc1)NC1CCN(CC2CC3c4ccccc4Cc4ccc(F)cc4C3O2)CC1 (stereo not drawn)
Result: 20.4 nM

Ask: So what's the measured IC50 for this one? COCC(=O)N1CCN(CC2CC3c4ccccc4Cc4ccc(F)cc4C3O2)CC1 (stereo not drawn)
Result: 13.2 nM

Ask: So what's the measured IC50 for this one? N#Cc1ccc2c(c1)[C@H]1C[C@@H](CN3CCC(O)C3)O[C@H]1c1cc(F)ccc1S2 (relative stereo)
Result: 3.09 nM

Ask: So what's the measured IC50 for this one? O=C(OCc1ccccc1)N1CCN(CC2CC3c4ccccc4Cc4ccc(F)cc4C3O2)CC1 (stereo not drawn)
Result: 63.1 nM

Ask: So what's the measured IC50 for this one? O=C(Nc1ccc(F)cc1)OCC1CCN(CC2CC3c4ccccc4Cc4ccc(F)cc4C3O2)C1 (stereo not drawn)
Result: 3.8 nM

Ask: So what's the measured IC50 for this one? Fc1ccc(OCCN2CCN(CC3CC4c5ccccc5Cc5ccc(F)cc5C4O3)CC2)cc1 (stereo not drawn)
Result: 8.13 nM

Ask: So what's the measured IC50 for this one? O=C(Cc1ccccc1)OC1CCN(CC2CC3c4ccccc4Cc4ccc(F)cc4C3O2)C1 (mixture of isomers)
Result: 3.63 nM

Ask: So what's the measured IC50 for this one? COC(=O)C(Cc1ccc(Cl)cc1)NC(=O)C1CCN(CC2CC3c4ccccc4Cc4ccc(F)cc4C3O2)CC1 (mixture of isomers)
Result: 5.75 nM

Ask: So what's the measured IC50 for this one? N#CCCC1CCCN(CC2CC3c4ccccc4Cc4ccc(F)cc4C3O2)C1 (mixture of isomers)
Result: 2.88 nM

Ask: So what's the measured IC50 for this one? O=C(NCCCc1ccccc1)N1CCN(CC2CC3c4ccccc4Cc4ccc(F)cc4C3O2)CC1 (stereo not drawn)
Result: 5.01 nM

Ask: So what's the measured IC50 for this one? O=C(Nc1ccc(F)c(Cl)c1)C1CCN(CC2CC3c4ccccc4Cc4ccc(F)cc4C3O2)CC1 (stereo not drawn)
Result: 2.75 nM

Ask: So what's the measured IC50 for this one? CN(C)C(=O)NC1CCN(CC2CC3c4ccccc4Cc4ccc(F)cc4C3O2)CC1 (stereo not drawn)
Result: 3.24 nM
